# Tested on: Staph.aureus A 2000
# Procedure text: agar serial dilution test
# Format: cell-based, Staphylococcus aureus
# Test conditions: Staphylococcus aureus, A2000, 24 h, agar serial dilution, 24 hours, 37° C.; read-out: minimal inhibitory concentration (MIC)
Reported property: log10 MIC (log10 of the value in µg/mL)
Hi team, quick reminder: these entries are log10 of MIC (µg/mL).

Req: Return reported log10 MIC; argument: Cc1noc(C(C(=O)N[C@@H]2C(=O)N3[C@@H]2SC(C)(C)[C@@H]3C(=O)O)c2ccccc2)n1 (mixture of isomers)
Resp: 0.18

Req: Now consider Cc1nc(CC(=O)N[C@@H]2C(=O)N3C(C(=O)O)=C(CSc4nnnn4C)CS[C@H]23)no1 and answer again.
Resp: 0.00

Req: Now consider COCc1noc(CC(=O)N[C@@H]2C(=O)N3[C@@H]2SC(C)(C)[C@@H]3C(=O)O)n1 and answer again.
Resp: 0.78

Req: Now consider CC(=O)OCC1=C(C(=O)O)N2C(=O)[C@@H](NC(=O)Cc3nc(-c4c(C)cc(C)cc4C)no3)[C@H]2SC1 and answer again.
Resp: 0.00

Req: Now consider Cn1nnnc1SCC1=C(C(=O)O)N2C(=O)[C@@H](NC(=O)Cc3nc(CC(=O)O)no3)[C@H]2SC1 and answer again.
Resp: 0.78

Req: Now consider CCc1noc(C(C)C(=O)N[C@@H]2C(=O)N3[C@@H]2SC(C)(C)[C@@H]3C(=O)O)n1 (some centres unmarked) [Example 11M] and answer again.
Resp: 0.78

Req: Now consider CC(=O)OCC1=C(C(=O)O)N2C(=O)[C@@H](NC(=O)Cc3cccs3)[C@H]2SC1 [Cephalotin, reference compound] and answer again.
Resp: -0.30
